Reported values of half-life at 20 µM for individual entries
# assay details: Microsomal Stability Assay (Examples 6 and 8)
# Format: in vitro ADME, mouse
# test conditions: CD-1, mouse, liver microsomes, pH 7.4, independent test II; read-out: t1/2 II
measure: half-life at 20 µM

[[record]]
compound = "Cc1noc(-c2cnc(NC3CCCC3)c(NC3CCCC3)c2)n1 [TH-4-67]"
result = "> 120 min"

[[record]]
compound = "Cc1noc(-c2cnc(NC3CCCCC3)c(NC3CCCCC3)c2)n1 [TH-2-31]"
result = "> 120 min"

[[record]]
compound = "CCC(CC)Nc1cc(-c2nc(C)no2)cnc1NC1CCCCC1 [TH-4-55-2]"
result = "> 120 min"

